Test: Drug uptake in CD1 mouse pancreas at 5 mg/kg, po daily for 75 days
Format: ADME, organism-based
Design: dose 5 mg/kg, route oral
Conditions: read-out: Drug uptake
metric: concentration at 1800 h (µM)

[[record]]
cpd_smiles = "COc1cc(NCc2ccc(O)cc2)c2nccc(C)c2c1Oc1cccc(C(F)(F)F)c1"
readout_value = 26.5


====

Test: Drug uptake in CD1 mouse kidney at 5 mg/kg, po daily for 75 days
Type: ADME, organism-based
Design: dose 5 mg/kg, route oral
Conditions: read-out: Drug uptake
metric: concentration at 1800 h (µM)

[[record]]
cpd_smiles = "COc1cc(NCc2ccc(O)cc2)c2nccc(C)c2c1Oc1cccc(C(F)(F)F)c1"
metric = "concentration at 1800 h"
result_units = "µM"
readout_value = 16.1


====

Test: Cytotoxicity against human MC65 cells by MTT assay
Type: cell-based
Settings: read-out: TC50 (the source's name)
Recorded CC50 by entry
metric: CC50 (µM)

[[record]]
cpd_smiles = "COc1cc(NCc2ccc(O)cc2)c2nccc(C)c2c1Oc1cccc(F)c1"
result_comparator = "="
readout_value = 2.6

[[record]]
cpd_smiles = "COc1cc(NCCC(N)=O)c2nccc(C)c2c1Oc1cccc(C(F)(F)F)c1"
result_comparator = ">"
readout_value = 50

[[record]]
cpd_smiles = "Cc1ccnc2c(NCc3ccc(O)cc3)cc(O)c(Oc3cccc(C(F)(F)F)c3)c12"
result_comparator = "="
readout_value = 3.31

[[record]]
cpd_smiles = "COc1cc(NC(=O)c2ccco2)c2nccc(C)c2c1Oc1cccc(C(F)(F)F)c1"
result_comparator = ">"
readout_value = 50

[[record]]
cpd_smiles = "COc1cc(NCc2ccc(O)cc2)c2nccc(C)c2c1Oc1ccccc1"
result_comparator = "="
readout_value = 4.01

[[record]]
cpd_smiles = "COc1cc(NCCCN)c2nccc(C)c2c1"
result_comparator = ">"
readout_value = 50

[[record]]
cpd_smiles = "COc1cc(NCc2cc3ccccc3o2)c2nccc(C)c2c1Oc1cccc(C(F)(F)F)c1"
result_comparator = ">"
readout_value = 50

[[record]]
cpd_smiles = "COc1cc(NCc2cccc3cccnc23)c2nccc(C)c2c1Oc1cccc(C(F)(F)F)c1"
result_comparator = ">"
readout_value = 50

[[record]]
cpd_smiles = "COc1cc(NCc2ccc(O)cc2)c2nccc(C)c2c1Oc1cccc(C(F)(F)F)c1"
result_comparator = "="
readout_value = 1.38

[[record]]
cpd_smiles = "COc1cc(NCc2nccs2)c2nccc(C)c2c1Oc1cccc(C(F)(F)F)c1"
result_comparator = "="
readout_value = 20.3

